Attribution: paper PMC9571937

- subjectOfTest: Mtb ThyX (Mycobacterium tuberculosis, UniProt P9WG57)
- Sequence (P9WG57 whole entry): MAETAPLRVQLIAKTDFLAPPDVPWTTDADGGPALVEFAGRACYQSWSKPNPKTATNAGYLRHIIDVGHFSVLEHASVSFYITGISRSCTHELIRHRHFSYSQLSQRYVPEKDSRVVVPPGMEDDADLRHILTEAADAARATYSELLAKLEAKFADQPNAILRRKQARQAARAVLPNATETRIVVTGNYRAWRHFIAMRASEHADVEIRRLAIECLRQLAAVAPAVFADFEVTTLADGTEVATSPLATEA
- testName: M. tuberculosis ThyX NADPH oxidase assay
- Type: biochemical
- experimentalSetup: calculated for 9a
measureName: IC50
Report field: quantity (unit follows the number).

Requested field: IC50. Item: `O=c1[nH]c2c(nc3ccccn32)c(=O)n1-c1ccc(F)cc1`
95 µM

###

- testName: in vitro
- Type: cell-based
- experimentalSetup: human
measureName: CC50

Requested field: CC50. Item: O=c1[nH]c2c(nc3ccc(-c4ccccc4)cn32)c(=O)n1-c1ccc(F)cc1 [Compound 23a]
> 100 µM

###

Known inhibition at 200 µM of a selection of compounds
- subjectOfTest: UniProt P9WG57
- testName: M. tuberculosis ThyX NADPH oxidase assay
- Format: biochemical
- experimentalSetup: 200 μM compound, NADPH oxidase assay, 50 µM FAD; read-out: Inhibition % (Mtb ThyX)
# number only, unit % dropped from output

For orientation, consider the following solved cases.
COC(=O)c1ccc(Cn2c(=O)n(-c3ccc(F)cc3)c(=O)c3nc4ccccn4c32)cc1 [Compound 13e]: 44.8
O=c1c2nc3ccccn3c2[nH]c(=S)n1-c1ccc(F)cc1 [Compound 11]: 19.8

Requested field: inhibition at 200 µM. Item: CCCCCCCC(=O)NCC#Cc1ccn2c(c1)nc1c(=O)n(-c3ccc(F)cc3)c(=O)[nH]c12 [Compound 20f]
18.8

Please do the same for N#Cc1ccc(Cn2c(=O)n(-c3ccc(F)cc3)c(=O)c3nc4ccccn4c32)cc1 [Compound 13c] as well.
26.5

Please do the same for O=c1c2nc3ccccn3c2n(Cc2ccccc2)c(=O)n1-c1ccc(F)cc1 [Compound 13a] as well.
23.2

Please do the same for O=c1c2nc3ccccn3c2n(Cc2ccc([N+](=O)[O-])cc2)c(=O)n1-c1ccc(F)cc1 [Compound 13d] as well.
0

Please do the same for O=c1[nH]c2c(nc3ccccn32)c(=O)n1-c1ccc(F)cc1F [Compound 9i] as well.
6.6

Please do the same for Cc1ccc(-c2ccc3nc4c(=O)n(-c5ccc(F)cc5)c(=O)[nH]c4n3c2)cc1 [Compound 23b] as well.
44.4

Please do the same for CCCCCCC#Cc1ccn2c(c1)nc1c(=O)n(-c3ccc(F)cc3)c(=O)[nH]c12 [Compound 20e] as well.
45.1

Please do the same for O=c1[nH]c2c(nc3ccc(C#CCCc4ccccc4)cn32)c(=O)n1-c1ccc(F)cc1 [Compound 21a] as well.
69.1

Please do the same for O=c1[nH]c2c(nc3ccccn32)c(=O)n1-c1ccc(Br)cc1 [Compound 9c] as well.
52.2

Please do the same for CCCCCCCC(=O)NCC#Cc1ccc2nc3c(=O)n(-c4ccc(F)cc4)c(=O)[nH]c3n2c1 [Compound 21f] as well.
16.9

Please do the same for Cc1ccc(-c2ccn3c(c2)nc2c(=O)n(-c4ccc(F)cc4)c(=O)[nH]c23)cc1 [Compound 22b] as well.
45.7

Please do the same for O=c1[nH]c2c(nc3ccc(-c4ccccc4)cn32)c(=O)n1-c1ccc(F)cc1 [Compound 23a] as well.
84.3

Please do the same for O=c1[nH]c2c(nc3ccccn32)c(=O)n1Cc1ccc(F)cc1 [Compound 10b] as well.
21.2

Please do the same for O=c1[nH]c2c(nc3ccccn32)c(=O)n1-c1ccc(C(F)(F)F)cc1 [Compound 9e] as well.
31.7
